- TARGET_UNDER_TEST: Peroxisome proliferator-activated receptor gamma (Homo sapiens) (UniProt P37231)
- Sequence (P37231 whole entry, the tested form may be a part): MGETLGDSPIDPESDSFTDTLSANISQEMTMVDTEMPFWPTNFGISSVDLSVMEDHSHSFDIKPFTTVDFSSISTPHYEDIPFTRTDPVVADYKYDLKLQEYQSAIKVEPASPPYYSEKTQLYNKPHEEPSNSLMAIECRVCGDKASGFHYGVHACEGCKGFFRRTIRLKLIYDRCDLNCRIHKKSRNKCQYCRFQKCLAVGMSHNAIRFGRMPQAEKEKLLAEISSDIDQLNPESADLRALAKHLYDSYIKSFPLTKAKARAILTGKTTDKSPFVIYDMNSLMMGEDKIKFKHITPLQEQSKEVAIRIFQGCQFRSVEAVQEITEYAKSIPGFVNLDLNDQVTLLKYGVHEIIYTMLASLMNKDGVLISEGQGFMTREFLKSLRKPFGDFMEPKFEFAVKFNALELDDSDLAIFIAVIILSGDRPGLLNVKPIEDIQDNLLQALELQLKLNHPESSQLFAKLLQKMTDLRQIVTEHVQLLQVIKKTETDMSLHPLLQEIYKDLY
- ASSAY_OVERVIEW: Transactivation of Gal4-fused human PPARgamma transfected in COS7 cells co-transfected with pGAL5-TK-pGL3 and pRennilla-CMV assessed as maximum intrinsic activation at 10 uM incubated for 39 hrs by dual luciferase reporter assay relative to pioglitazone
- Assay type: cell-based
Entries get a class label from measured Intrinsic activity. See ranges: Low: < 20%; Mid: ≥ 20% and < 40%; High: ≥ 40%

// query In plain terms, what class is CCCc1nc2c(Cl)cccc2n1Cc1ccc(-c2ccccc2C(N)=O)cc1 ?
// result Mid

// query In plain terms, what class is CCCc1nc2c(N)cccc2n1Cc1ccc(-c2ccccc2C(=O)O)cc1 ?
// result Low

// query In plain terms, what class is CCCc1nc2ccccc2n1Cc1ccc(-c2ccccc2C(=O)O)cc1 ?
// result High

// query In plain terms, what class is CCCc1nc2c(F)cccc2n1Cc1ccc(-c2ccccc2C(N)=O)cc1 ?
// result Mid

// query In plain terms, what class is CCCc1nc2c(Br)cccc2n1Cc1ccc(-c2ccccc2C(N)=O)cc1 ?
// result Mid

// query In plain terms, what class is CCCc1nc2c(F)cccc2n1Cc1ccc(-c2ccccc2C(=O)O)cc1 ?
// result High

// query In plain terms, what class is CCCc1nc2c([N+](=O)[O-])cccc2n1Cc1ccc(-c2ccccc2C(N)=O)cc1 ?
// result Low

// query In plain terms, what class is CCCc1nc2c(Cl)cccc2n1Cc1ccc(-c2ccccc2C(=O)O)cc1 ?
// result High

// query In plain terms, what class is CCCc1nc2c([N+](=O)[O-])cccc2n1Cc1ccc(-c2ccccc2C(=O)O)cc1 ?
// result Low

// query In plain terms, what class is CCCc1nc2c(OC)cccc2n1Cc1ccc(-c2ccccc2C(N)=O)cc1 ?
// result Low

// query In plain terms, what class is CCCc1nc2c(C(F)(F)F)cccc2n1Cc1ccc(-c2ccccc2C(=O)O)cc1 ?
// result Mid

// query In plain terms, what class is CCCc1nc2c(C)cccc2n1Cc1ccc(-c2ccccc2C(=O)O)cc1 ?
// result High

// query In plain terms, what class is CCCc1nc2c(N)cccc2n1Cc1ccc(-c2ccccc2C(N)=O)cc1 ?
// result Mid

// query In plain terms, what class is CCCc1nc2c(OC)cccc2n1Cc1ccc(-c2ccccc2C(=O)O)cc1 ?
// result Low

// query In plain terms, what class is CCCc1nc2c(O)cccc2n1Cc1ccc(-c2ccccc2C(=O)O)cc1 ?
// result Low

// query In plain terms, what class is CCCc1nc2c(Br)cccc2n1Cc1ccc(-c2ccccc2C(=O)O)cc1 ?
// result High

// query In plain terms, what class is CCCc1nc2c(C)cc(-c3nc4ccccc4n3C)cc2n1Cc1ccc(-c2ccccc2C(=O)O)cc1 ?
// result High
